# TARGET ENTITY: Cholinesterase (Equus caballus, UniProt P81908)
# Sequence (P81908 whole entry): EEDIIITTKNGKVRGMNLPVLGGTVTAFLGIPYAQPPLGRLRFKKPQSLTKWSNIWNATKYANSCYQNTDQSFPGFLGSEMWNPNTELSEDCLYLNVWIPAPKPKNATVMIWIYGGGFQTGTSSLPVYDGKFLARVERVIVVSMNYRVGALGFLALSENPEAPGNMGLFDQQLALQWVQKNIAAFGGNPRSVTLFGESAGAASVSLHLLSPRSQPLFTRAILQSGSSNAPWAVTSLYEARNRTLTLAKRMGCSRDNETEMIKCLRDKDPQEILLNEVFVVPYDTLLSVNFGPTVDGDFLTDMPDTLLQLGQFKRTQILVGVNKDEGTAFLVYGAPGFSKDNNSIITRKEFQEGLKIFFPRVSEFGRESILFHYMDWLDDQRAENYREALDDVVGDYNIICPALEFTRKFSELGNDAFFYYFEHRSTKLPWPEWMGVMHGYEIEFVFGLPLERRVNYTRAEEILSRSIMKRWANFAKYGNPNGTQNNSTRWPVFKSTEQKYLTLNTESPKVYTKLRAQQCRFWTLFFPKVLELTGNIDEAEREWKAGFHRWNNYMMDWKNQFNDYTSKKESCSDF
Could you mark each record 1 (yes) if its IC50 falls strictly under 9 nM, and 0 (no) if it equals or exceeds it?

{"RECORD SMILES": "CN1CCC=C(c2nsnc2OCCCOCC(=O)NCCCCNc2c3c(nc4ccccc24)CCCC3)C1", "ASSIGNED CLASS": "0 (no)"}
{"RECORD SMILES": "CN1CCC=C(c2nsnc2OCCCOCCCCC(=O)NCCCCCCCCNc2c3c(nc4ccccc24)CCCC3)C1", "ASSIGNED CLASS": "1 (yes)"}
{"RECORD SMILES": "CN1CCC=C(c2nsnc2OCCCOCCCC(=O)NCCCCCCCCNc2c3c(nc4ccccc24)CCCC3)C1", "ASSIGNED CLASS": "1 (yes)"}
{"RECORD SMILES": "CN1CCC=C(c2nsnc2OCCCOCC(=O)NCCCCCCCCNc2c3c(nc4ccccc24)CCCC3)C1", "ASSIGNED CLASS": "1 (yes)"}
{"RECORD SMILES": "CN1CCC=C(c2nsnc2OCCCOCCC(=O)NCCCNc2c3c(nc4ccccc24)CCCC3)C1", "ASSIGNED CLASS": "0 (no)"}
